# assay-target: CYP2D6 (Homo sapiens, UniProt P10635)
# Sequence (P10635 whole entry): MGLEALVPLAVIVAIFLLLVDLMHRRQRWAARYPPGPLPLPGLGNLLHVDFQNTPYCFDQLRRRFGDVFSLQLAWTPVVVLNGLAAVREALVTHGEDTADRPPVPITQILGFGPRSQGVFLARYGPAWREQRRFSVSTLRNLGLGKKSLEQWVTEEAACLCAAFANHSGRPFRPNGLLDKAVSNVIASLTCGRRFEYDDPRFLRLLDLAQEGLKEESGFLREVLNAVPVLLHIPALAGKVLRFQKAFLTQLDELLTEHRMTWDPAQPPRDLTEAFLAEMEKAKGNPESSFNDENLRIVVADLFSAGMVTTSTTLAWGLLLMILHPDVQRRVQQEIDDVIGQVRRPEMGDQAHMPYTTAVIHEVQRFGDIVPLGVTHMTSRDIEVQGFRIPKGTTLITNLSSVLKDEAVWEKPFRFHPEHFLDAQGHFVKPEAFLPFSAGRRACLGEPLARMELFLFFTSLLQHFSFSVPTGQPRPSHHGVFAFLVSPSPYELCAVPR
# protocol: Inhibition of human CYP2D6 using dextromethorphan as substrate at 10 uM
# Assay type: ADME
# cond: probe dextromethorphan
Each entry below lists one item and its recorded inhibition at 10 µM value.
Unit % implied. Number only.

{"record-smiles": "Cl.NC[C@H]1C[C@@H]1c1cc(F)ccc1OCCF", "obs-value": 24}
{"record-smiles": "C=CCOc1ccc(F)cc1[C@H]1C[C@@H]1CN.Cl", "obs-value": 43}
{"record-smiles": "C=C(F)COc1ccc(Cl)cc1[C@H]1C[C@@H]1CN.Cl", "obs-value": 80}

Enquiry: Field request: inhibition at 10 µM | item: Cl.NC[C@H]1C[C@@H]1c1cc(Cl)ccc1OCCF
Return: 79

----------
# assay-target: Alpha-2A adrenergic receptor (Homo sapiens, UniProt P08913)
# Sequence (P08913 whole entry): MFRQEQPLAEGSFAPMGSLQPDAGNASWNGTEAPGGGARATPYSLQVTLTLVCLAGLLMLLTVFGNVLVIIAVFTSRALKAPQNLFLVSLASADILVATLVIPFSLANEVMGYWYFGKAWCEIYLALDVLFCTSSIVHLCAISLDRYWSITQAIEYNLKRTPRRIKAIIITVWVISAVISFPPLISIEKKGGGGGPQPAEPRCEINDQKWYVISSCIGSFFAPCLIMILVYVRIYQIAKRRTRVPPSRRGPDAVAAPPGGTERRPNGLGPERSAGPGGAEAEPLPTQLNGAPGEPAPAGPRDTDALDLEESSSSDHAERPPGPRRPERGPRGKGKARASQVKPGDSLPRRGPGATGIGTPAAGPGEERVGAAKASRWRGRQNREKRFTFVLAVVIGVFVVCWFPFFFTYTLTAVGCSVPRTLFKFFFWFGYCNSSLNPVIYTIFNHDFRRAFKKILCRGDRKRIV
experimental-readout: Ki

{"record-smiles": "Cl.NC[C@H]1C[C@@H]1c1cc(F)ccc1OCCF", "assay-target": "Alpha-2A adrenergic receptor (Homo sapiens, UniProt P08913)", "Ki": "< 1000 nM"}

Enquiry: Consider the molecule C=CCOc1ccc(F)cc1[C@H]1C[C@@H]1CN.Cl and give its measured Ki.
Return: < 1000 nM

----------
# assay-target: 5-hydroxytryptamine receptor 2C (Homo sapiens) (UniProt P28335)
# Sequence (P28335 whole entry): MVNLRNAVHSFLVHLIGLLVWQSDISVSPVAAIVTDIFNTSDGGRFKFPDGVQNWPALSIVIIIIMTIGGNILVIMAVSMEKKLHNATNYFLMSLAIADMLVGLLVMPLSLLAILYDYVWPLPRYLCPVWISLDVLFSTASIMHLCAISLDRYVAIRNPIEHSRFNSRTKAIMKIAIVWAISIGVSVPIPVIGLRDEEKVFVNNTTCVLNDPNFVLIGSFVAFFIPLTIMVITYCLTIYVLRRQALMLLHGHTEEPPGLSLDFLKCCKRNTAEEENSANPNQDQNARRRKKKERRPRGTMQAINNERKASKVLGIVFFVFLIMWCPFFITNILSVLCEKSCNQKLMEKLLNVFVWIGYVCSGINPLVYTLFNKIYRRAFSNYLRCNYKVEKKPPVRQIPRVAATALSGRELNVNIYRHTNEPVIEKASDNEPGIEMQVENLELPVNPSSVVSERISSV
# protocol: Agonist activity at human 5-HT2C receptor expressed in HEK293 cells assessed as calcium flux by FLIPR assay relative to 5-HT
# Type: functional, cell-based
Item-by-item account of Emax
State the answer as a number, implicitly in %.

{"record-smiles": "C#CCOc1ccc(Cl)cc1[C@@H]1C[C@H]1CN", "unit-of-measurement": "%", "Emax": 71}
{"record-smiles": "C=C(C)COc1ccc(Cl)cc1[C@H]1C[C@@H]1CN", "unit-of-measurement": "%", "Emax": 90}
{"record-smiles": "CSCCOc1ccc(Cl)cc1[C@@H]1C[C@H]1CN", "unit-of-measurement": "%", "Emax": 11}

# evaluate next
Enquiry: Param item = CCCOc1ccc(F)cc1[C@H]1C[C@@H]1CN ; retrieve measured Emax.
Return: 88

----------
Recorded Emax by entry
# assay-target: 5-hydroxytryptamine receptor 2A (Homo sapiens)
# Sequence (P28223 whole entry): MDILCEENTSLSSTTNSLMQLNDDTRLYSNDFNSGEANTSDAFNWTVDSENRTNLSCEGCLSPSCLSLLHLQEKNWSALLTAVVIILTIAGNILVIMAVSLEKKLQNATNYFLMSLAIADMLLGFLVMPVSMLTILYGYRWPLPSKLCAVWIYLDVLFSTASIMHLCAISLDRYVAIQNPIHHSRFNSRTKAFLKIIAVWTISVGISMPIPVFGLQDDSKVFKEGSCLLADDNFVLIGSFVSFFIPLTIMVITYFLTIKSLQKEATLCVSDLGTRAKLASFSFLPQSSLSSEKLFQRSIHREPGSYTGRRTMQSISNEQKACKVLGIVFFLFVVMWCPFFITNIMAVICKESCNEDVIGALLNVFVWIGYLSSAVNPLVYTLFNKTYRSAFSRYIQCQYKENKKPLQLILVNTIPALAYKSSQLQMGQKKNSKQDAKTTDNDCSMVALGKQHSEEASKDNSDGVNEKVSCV
# protocol: Agonist activity at human 5-HT2A receptor expressed in HEK293 cells assessed as calcium flux by FLIPR assay relative to 5-HT
# Format: functional, cell-based
Please reply with the bare figure in % and do not write the unit itself.

Examples with answers:
{"record-smiles": "C=CCOc1ccc(F)cc1[C@H]1C[C@@H]1CN.Cl", "Emax (%)": 56}
{"record-smiles": "C=C(C)COc1ccc(Cl)cc1[C@H]1C[C@@H]1CN", "Emax (%)": 26}
{"record-smiles": "C#CCOc1ccc(Cl)cc1[C@H]1C[C@@H]1CN", "Emax (%)": 21}
{"record-smiles": "NC[C@@H]1C[C@H]1c1cc(Cl)ccc1OCC(F)F", "Emax (%)": 43}
{"record-smiles": "NC[C@H]1C[C@@H]1c1cc(Cl)ccc1OCC(F)F", "Emax (%)": 31}
{"record-smiles": "Cl.NC[C@H]1C[C@@H]1c1cc(Cl)ccc1OCCF", "Emax (%)": 35}
{"record-smiles": "C[C@H]1CNCCc2ccc(Cl)cc21", "Emax (%)": 68}
{"record-smiles": "CCCOc1ccc(F)cc1[C@H]1C[C@@H]1CN", "Emax (%)": 15}
{"record-smiles": "C=CCOc1ccc(F)cc1[C@@H]1C[C@H]1CN", "Emax (%)": 56}
{"record-smiles": "NC[C@@H]1C[C@H]1c1cc(F)ccc1OCCF", "Emax (%)": 20}

Enquiry: # lookup: Emax of CCOc1ccc(Cl)cc1[C@H]1C[C@@H]1CN
Return: 49

Enquiry: Continue with Cl.NC[C@H]1C[C@@H]1c1cc(F)ccc1OCCF
Return: 76
